Entries and their EC50
Target: T1, mouse CD112R-hIgG4 fusion protein (mouse; human)
T1 construct: also called soluble mouse CD112R; soluble murine CD112R
Test: ELISA: coated antibody, titrated mouse CD112R-hIgG4, anti-IgG4 HRP
Provide only the numeric value, understood in µg/mL.

Previously resolved entries follow.
Antibody 32 (antibody, V domains shown, Purified as IgG; compared with an IgG1 isotype control and detected with anti-human IgG Fc; also called antibody clone number 32; parent clone 32) VH: QVQLVQSGAEVKKPGSSVKVSCKASGGTFSSYAISWVRQAPGQGLEWMGGIIPISGTANYAQKFQGRVTITADESTSTAYMELSSLRSEDTAVYYCARDTGRGYTRHFWFDPWGQGTLVTVSS VL: DIQMTQSPSSLSASVGDRVTITCRASQSISSYLNWYQQKPGKAPKLLIYAASSLQSGVPSRFSGSGSGTDFTLTISSLQPEDFATYYCQQSDILYTFGGGTKVEIK : 0.27
Antibody 36 (antibody, V domains shown, Purified as IgG; compared with an IgG1 isotype control and detected with anti-human IgG Fc; also called antibody clone number 36; clone 36) VH: QVQLVQSGAEVKKPGSSVKVSCKASGGTFATYAISWVRQAPGQGLEWMGGIFPLSGTANYAQKFQGRVTITADESTSTAYMELSSLRSEDTAVYYCARDTGRGYTRHFWFDPWGQGTLVTVSS VL: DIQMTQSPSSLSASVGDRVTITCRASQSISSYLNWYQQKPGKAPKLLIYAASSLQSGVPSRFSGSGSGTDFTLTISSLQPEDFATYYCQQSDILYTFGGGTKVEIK : 0.0251

Let us examine a further case.
Entry Antibody 33 (antibody, V domains shown, Purified as IgG; compared with an IgG1 isotype control and detected with anti-human IgG Fc; also called antibody clone number 33; clone 33) VH: QVQLVQSGAEVKKPGSSVKVSCKASGGTFGNYAISWVRQAPGQGLEWMGGIIPIPGIANYAQKFQGRVTITADESTSTAYMELSSLRSEDTAVYYCARDTGRGYTRHFWFDPWGQGTLVTVSS VL: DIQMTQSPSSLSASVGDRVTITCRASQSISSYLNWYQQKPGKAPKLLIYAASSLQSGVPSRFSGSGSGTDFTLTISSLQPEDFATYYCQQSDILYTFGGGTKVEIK , EC50 reported as 0.0383

Values compiled from patent US20250051449A1.
